B1: ZNF8 (parent)
chain: KPYTCSVCGKSFSRTTCLFLHLRT

# Variants of: B1
# Experimental Details: protein stability index of a GFP-peptide fusion (GPS, HEK-293T) (PSI 1-6); higher = more stable;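 also: lentivirally expressed fusions sorted by FACS into six bins by GFP to DsRed ratio, PSI derived from sequencing read proportions per bin multiplied by bin number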
# Assay Setup: c terminus: a fixed tail appended
Metric: protein stability index
One number for each entry.

Known results for variants:
| Sequence Record | Metric | Assay Value |
| --- | --- | --- |
| KPYTCSVCGKSFSRTTCQFLHLRT [L18Q] | protein stability index | 2.11 |
| KPYTCSVCGKSFSRTSCLFLHLRT [T16S] | protein stability index | 2.17 |
| KPYTCYVCGKSFSRTTCLFLHLRT [S6Y] | protein stability index | 1.6 |

Dear reader, for each entry below, please note its protein stability index.
1. KPYTCSVCGKSFSRTTCLFLHYRT [L22Y]
2. KPVTCSVCGKSFSRTTCLFLHLRT [Y3V]
3. KPYTCSVCGKSFSRTTCYFLHLRT [L18Y]
4. KPYTCSVCKKSFSRTTCLFLHLRT [G9K]
5. KPYTCSVCGKSFSRTTCLKLHLRT [F19K]
6. KPYTCSVCGKRFSRTTCLFLHLRT [S11R]

Result block:
1: 1.8; 2: 2.1; 3: 2.43; 4: 1.87; 5: 1.93; 6: 2.12

For every item below, please supply its protein stability index.
1. KPYTCSVCGKSFSRPTCLFLHLRT [T15P]
2. KPYTYSVCGKSFSRTTCLFLHLRT [C5Y]
3. KPYTCSVCGKSFSRTTCLFLHDRT [L22D]
4. KPYTCSVCGKSFSRTTCLFLCLRT [H21C]
5. KPYTCSVCGKSFSRTTCLFLHMRT [L22M]
6. KPYTCSVCGKSFSRTTCLFHHLRT [L20H]

Result block:
1: 2.47; 2: 2.21; 3: 2.04; 4: 2.37; 5: 3.01; 6: 2.79

Batch request: protein stability index per item, same order as input.
1. KPYTCSECGKSFSRTTCLFLHLRT [V7E]
2. KPYTCSVCGKSFSRTTCLFLHLRD [T24D]

Result block:
1: 2.09; 2: 2.12

Attribution: the supplement of paper PMC10567573
